- tested.on: T1, recombinant HMG1 produced in E. coli as calmodulin binding protein (CBP) fusion (human)
- T1 chain: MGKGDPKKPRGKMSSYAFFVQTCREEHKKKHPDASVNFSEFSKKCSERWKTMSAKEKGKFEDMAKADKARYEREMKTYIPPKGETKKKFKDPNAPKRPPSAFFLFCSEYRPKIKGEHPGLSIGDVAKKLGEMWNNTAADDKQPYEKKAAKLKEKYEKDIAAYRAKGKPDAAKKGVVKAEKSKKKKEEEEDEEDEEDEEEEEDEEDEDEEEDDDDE
- assay.explanation: BIAcore 3000; mAb amine-coupled to CM5, HMG1 injected in two-fold dilutions; steady-state model
assay.metric: Kd
Put down the number, then write its unit next to it.

anti-HMG1 antibody G34 (antibody, V domains shown) VH: EVQLLESGGGLVQPGGSLRLSCAASGFTFSHYMMGWVRQAPGKGLEWVSRISPSGGGTVYADSVKGRFTISRDNSKNTLYLQMNSLRAEDTAVYYCARGGNWNYISYYYYYLDVWGKGTTVTVSS VL: DIQMTQSPSSLSASVGDRVAITCRASQSIDTYLNWYQQKPGKAPKLLIYAASKLEDGVPSRFSGSGTGTDFTLTIRSLQPEDFASYFCQQSYSSPGITFGPGTKVEIK : 67 nM

Ask: Recorded Kd of anti-HMG1 antibody G4 (antibody, V domains shown, also called ATCC PTA-6258) VH: EVQLLESGGGLVQPGGSLRLSCAASGFTFSWYDMTWVRQAPGKGLEWVSSISPSGGYTKYADSVKGRFTISRDNSKNTLYLQMNSLRAEDTAVYYCTTEFYDYLDVWGKGTTVTVSS VL: DIQMTQSPGTLSLSPGEGATLSCRASQSVSSTYLAWYQQKPGQAPRLLIYEASKRATGTPARFSGSGSGTDFTLSISSLEPEDFAVYYCQHRHNWPPQWTFGQGTKVEVK , please.
Result: 30 nM

Ask: Request the reported Kd associated with anti-HMG1 antibody S16 (antibody, V domains shown, also called ATCC PTA-6259) VH: EVQLLESGGGLVQPGGSLRLSCAASGFTFSWYSMLWVRQAPGKGLEWVSYISPSGGFTNYADSVKGRFTISRDNSKNTLYLQMNSLRAEDTAVYYCARWDYNSGWYYDHWGQGTLVTVSS VL: DIQMTQSPDTLSLSPGERATLSCRASQSVNSRNLAWYQQKPGQAPRLLIYGASTRATGIPDRFSGSVSGTEFTLTISSLQPDDFATYYCQQYNSYFTFGQGTKLEIK
Result: 23 nM

Ask: So what does the record say about Kd for anti-HMG1 antibody S14 (antibody, V domains shown) VH: EVQLLESGGGLVQPGGSLRLSCAASGFTFSWYETGWVRQAPGKGLEWVSGISPSGGYTQYADSVKGRFTISRDNSKNTLYLQMNSLRAEDTAVYYCARSGVGATKIFDYWGQGTLVTVSS VL: DIQMTQSPSSLSASVGDRVTIICRANERINTYLNWYQQKPGKAPKLLISGTSSLESGVPSRFSGSGSGTEFTLSISSLQPEDFASYYCQQSYSSPYTFGQGTNLEIR ?
Result: 205 nM
